Reference for the values: patent US20210070843A1

Recorded measurements of IC50 of pseudo virus neutralization H1N1 CA/09, one per entry
# Target: full-length H1 A/California/07/2009 HA expressed on 293T cells (influenza A virus A/California/07/2009 (H1N1))
# Test name: cell-based or functional assay

Record excerpt, results attached:
>>> result("P28 (antibody, V domains shown) VH: EVQLVESGGGLVQPGGSLRLSCAASGFTINNSGIHWVRQAPGKGLEWVASIWPSGGYTYYADSVKGRFTISADTSKNTAYLQMNSLRAEDTAVYYCARFNSSYSSGLMDYWGQGTLVTVSS VL: DIQMTQSPSSLSASVGDRVTITCRASQDVWYSVAWYQQKPGKAPKLLIYFATGLYSGVPSRFSGSGSGTDFTLTISSLQPEDFATYYCQQYFNWPVTFGQGTKVEIKR")
"> 100 µg/mL"
>>> result("P48 (antibody, V domains shown) VH: EVQLVESGGGLVQPGGSLRLSCAASGFTINSWGIHWVRQAPGKGLEWVAGIGPSWGYTSYADSVKGRFTISADTSKNTAYLQMNSLRAEDTAVYYCARFGDGDFDLMDYWGQGTLVTVSS VL: DIQMTQSPSSLSASVGDRVTITCRASQDVWSYVAWYQQKPGKAPKLLISYTSYLYSGVPSRFSGSGSGTDFTLTISSLQPEDFATYYCQQYFNWPITFGQGTKVEIKR")
"> 100 µg/mL"
>>> result("P10 (antibody, V domains shown) VH: EVQLVESGGGLVQPGGSLRLSCAASGFTIDNSWIHWVRQAPGKGLEWVASIWPFGGYTYYADSVKGRFTISADTSKNTAYLQMNSLRAEDTAVYYCARFGNVFDWYMDYWGQGTLVTVSS VL: DIQMTQSPSSLSASVGDRVTITCRASQDVNSNVAWYQQKPGKAPKLLIYWAGYLYSGVPSRFSGSGSGTDFTLTISSLQPEDFATYYCQQSSDFPITFGQGTKVEIKR")
"0.465 µg/mL"

Lookup: For the binder P47 (antibody, V domains shown) VH: EVQLVESGGGLVQPGGSLRLSCAASGFTIGNSGIHWVRQAPGKGLEWVASIWPSGGSTYYADSVKGRFTISADTSKNTAYLQMNSLRAEDTAVYYCARFGHIDGDIMDYWGQGTLVTVSS VL: DIQMTQSPSSLSASVGDRVTITCRASQDVYYYVAWYQQKPGKAPKLLISGSSYLYSGVPSRFSGSGSGTDFTLTISSLQPEDFATYYCQQYYNWPLTFGQGTKVEIKR , what IC50 of pseudo virus neutralization H1N1 CA/09 is on record?
Found: > 100 µg/mL

Lookup: Thanks! And S06 (antibody, V domains shown) VH: EVQLVESGGGLVQPGGSLRLSCAASGFTIGGGWIHWVRQAPGKGLEWVAFIGPYGGSTFYADSVKGRFTISADTSKNTAYLQMNSLRAEDTAVYYCARFNFGFWNHMDYWGQGTLVTVSS VL: DIQMTQSPSSLSASVGDRVTITCRASQDVSSWVAWYQQKPGKAPKLLIYGTTFLHSGVPSRFSGSGSGTDFTLTISSLQPEDFATYYCQQYYNGPLTFGQGTKVEIKR ?
Found: > 100 µg/mL
